# target_under_test: RIMKLA
# assay_notes: pooled miR-30 sensor sort-seq; sequence = guide strand; also: reference of the scale not given here
# condition_label: shRNA
Outcome: Fulfilled for sensor-assay potency score (higher = more potent) of at least -0.8; Not fulfilled for anything lower.

Example entries begin here.
In [3]: df
Out[3]:
            sequence_code  target_under_test          class
0  AAGCATAGAGCCTATGACCTGG             RIMKLA      Fulfilled
1  TTTCACTAGAGGTAGACCCACT             RIMKLA      Fulfilled
2  TTGGACTCGACAGTCCTGGGAG             RIMKLA      Fulfilled
3  TGTCTGACTGCACTGAGGGTGT             RIMKLA  Not fulfilled
4  TAGCATTTGCCTCACACACCAC             RIMKLA      Fulfilled
5  ATCAATGCCACAGAAGTCCATG             RIMKLA  Not fulfilled

### Prompt Reported sensor-assay potency score (higher = more potent) at or above -0.8? `TAGGAAGCCAACATTAGCATTT`
### Response Not fulfilled

====

# target_under_test: PAFAH1B2
# assay_notes: pooled miR-30 sensor sort-seq; sequence = guide strand
# condition_label: shRNA
quantity_measured: sensor-assay potency score (higher = more potent)
Keep it simple and answer with nothing but the number.

Look over these answered cases.
            sequence_code  observed_result
0  TTAGTCTCCACAAAACATGTCT           -0.124
1  TTTCGTGGTTATTTGTTCCTAC             0.14
2  TTACAGTCCAAAACAAATCTGT            0.236
3  TGTGCTGAGACATCCATCGGTC           -0.024

Just so you know, measured sensor-assay potency score (higher = more potent) for `TTGTGCTGAGACATCCATCGGT` came out at 0.723

====

# target_under_test: SLC26A5
# assay_notes: pooled miR-30 sensor sort-seq; sequence = guide strand
# condition_label: shRNA
Outcome: Y for sensor-assay potency score (higher = more potent) of at least -0.9; N for anything lower.

Example entries begin here.
In [3]: df
Out[3]:
            sequence_code  class
0  TAAATCTTTGCATTTCCTCAGG      Y
1  TTAATGAGGCCAAACAACCTGC      Y
2  TATACAAGTCGCTATTTGCATA      N
3  TATCATCTGGTACTAATCGAAC      N
4  TTCTGCAACACAGCAACTGTAC      Y

### Prompt Reported sensor-assay potency score (higher = more potent) at or above -0.9? `TTGTCCTTTGTGTGTAGTCTTT`
### Response Y

### Prompt Reported sensor-assay potency score (higher = more potent) at or above -0.9? `TTGTGTGTAGTCTTTCCTGGAG`
### Response Y

====

# target_under_test: RNF41
# assay_notes: pooled miR-30 sensor sort-seq; sequence = guide strand
# condition_label: shRNA
Outcome: true (1) for sensor-assay potency score (higher = more potent) of at least 0.06; false (0) for anything lower.

In [3]: df
Out[3]:
            sequence_code     class
0  TAATTTATAGACATTTTAGGGG  true (1)

### Prompt Reported sensor-assay potency score (higher = more potent) at or above 0.06? `TCTGATTTCCATCTCTTCCTGA`
### Response true (1)

### Prompt Reported sensor-assay potency score (higher = more potent) at or above 0.06? `TAGTTCTCATAGTAGCGTCGGT`
### Response false (0)

### Prompt Reported sensor-assay potency score (higher = more potent) at or above 0.06? `AACATGTTCCGCATGATCCGAG`
### Response false (0)

### Prompt Reported sensor-assay potency score (higher = more potent) at or above 0.06? `ATCTTCGTCAACATCCCCCTGG`
### Response false (0)

### Prompt Reported sensor-assay potency score (higher = more potent) at or above 0.06? `ATCTGTCTAGTCTCTAGTGTGG`
### Response false (0)

### Prompt Reported sensor-assay potency score (higher = more potent) at or above 0.06? `TTTGACAACATGTTCCGCATGA`
### Response true (1)

### Prompt Reported sensor-assay potency score (higher = more potent) at or above 0.06? `TAGCGTCGGTTCATCTGTCTAG`
### Response true (1)
